Reference source: ChEMBL document CHEMBL1201862

System: UACC-257
assay_comment: NCI tumour cell line growth inhibition, 48 h
Active and inactive are the calls of the source. Rule as the data show it: active = GI50 up to about 1.1 µM and inactive = higher.
recorded_endpoint: GI50

Sample answers from the record:
INSERT INTO results (compound, test_target, measurement) VALUES
  ('CCOC(=O)/C(=C/c1cc(OC)ccc1OC)CC(=O)O', 'UACC-257', '> 100 µM (inactive)'),
  ('O=C1NC(=S)NC(=O)C1=Cc1ccc([N+](=O)[O-])o1', 'UACC-257', '44.2 µM (inactive)'),
  ('COc1ccc(/C=C2\CCC(CNc3ccc(OC)cc3)C2=O)cc1 (stereo unspecified)', 'UACC-257', '17.5 µM (inactive)'),
  ('O=C(/C=C(\N=P(c1ccccc1)(c1ccccc1)c1ccccc1)C(F)(F)C(F)(F)C(F)(F)C(F)(F)C(F)(F)C(F)(F)C(F)(F)F)c1ccccc1', 'UACC-257', '> 100 µM (inactive)'),
  ('O=C(O)CNc1cc(-c2ccccc2)nc(NCC(=O)O)n1', 'UACC-257', '> 100 µM (inactive)'),
  ('COc1ccc(/C=C/C(=O)CCN2CCN(CCC(=O)/C=C/c3ccc(OC)cc3)CC2)cc1', 'UACC-257', '14.8 µM (inactive)'),
  ('COc1ccc(C2CC(c3c(O)ccc4ccccc34)=NN2)cc1OC (stereo unspecified)', 'UACC-257', '6.81 µM (inactive)'),
  ('CC(=O)C12C[C@](C#N)(N3CCCCCC3)C1C=Cc1ccccc12 (stereo partly specified)', 'UACC-257', '> 100 µM (inactive)');

Given the compound COc1cc(/C=N/N=C(\N)NO)c(Cl)cc1O , what is its reported GI50?
> 100 µM (inactive)

Item under review: CN(C)/C(=N\C#N)NCc1ccccc1 . Reported GI50?
> 100 µM (inactive)

Item Cc1ccsc1/C=N/Nc1nc2ccccc2s1 has what recorded GI50?
20.4 µM (inactive)

* * *

Tested on: NCI-H460
assay_comment: NCI tumour cell line growth inhibition, 48 h
Calls of active or inactive are those of the source. No stated cut-off is given here; in the data, active = GI50 up to about 1.1 µM and inactive = higher.
Parameter call: string, one of t for active, f for inactive

Example entries and their recorded answers appear below.
INSERT INTO results (compound, class_name) VALUES
  ('O=[N+]([O-])/C(C(Cl)=C(Cl)Cl)=C(\N1CCCCC1)n1nnc2ccccc21', 'f'),
  ('c1cncc(CNCCN2CCNCC2)c1', 'f'),
  ('CC(NCCN(C)C)C1CCC2C3CCc4cc(O)ccc4C3CCC12C (configuration not stated)', 'f'),
  ('Cc1cc(O)c2cc3c(O)c(O)ccc3cc2c1', 't'),
  ('O=C1NCN(c2ccccc2)C12CCN(CC1COc3ccccc3O1)CC2 (configuration not stated) [SPIROXATRINE]', 'f');

Tell me the assay call for CON(C)C(=O)[C@H]1C[C@@]1(C)CO please.
f

Could you please tell me the result logged for Cc1cc(C)c(C)c(-n2[nH]c(=O)n(C)c2=O)c1C in this assay?
f

Query: recorded result category for COc1cc2c3cc1Oc1c(OC)c(OC)cc4c1[C@@H](Cc1ccc(O)c(c1)Oc1ccc(cc1)C[C@@H]3N(C)CC2)N(C)CC4.c1ccccc1 in this test
f

Assay result, entry COc1cc(C2C3=C(CCCC3=O)N(c3ccc(C)cc3)C3=C2C(=O)CCC3)c([N+](=O)[O-])cc1OC — outcome?
f

I'd appreciate the recorded outcome for CCOC(=O)/C(=C/c1cc(OC)ccc1OC)CC(=O)O from this test.
f

Called result for Clc1ccc(-c2nnc(C34CC5CC(CC(C5)C3)C4)o2)cc1
f

Which outcome was entered for the compound Nc1ccc(OCCCc2c(-c3ccccc3)[nH]c(N)nc2=O)cc1 in this test?
f

Called result for CC(C)(C)OC(=O)N1CC(COS(C)(=O)=O)c2ccc(O)cc21 (configuration not stated)
f

# outcome recorded in this test, key = CN(Cc1cc(Br)cc(Br)c1O)Cc1c(O)ccc2ccccc12
f

Look up the recorded call for Cc1c2c(n3c(nc4ccccc43)c1C#N)N(c1ccc(Cl)cc1)CC2 in this test.
f

Could you kindly confirm the outcome this assay logged for O=C1CC(CC(=O)C2CCCCC2=O)C(=O)N1 (configuration not stated) ?
f

* * *

Here, each record is paired with measured GI50 data.
Tested on: SN12C
assay_comment: NCI tumour cell line growth inhibition, 48 h
Activity calls are given as the source filed them. Rule as the data show it: active = GI50 up to about 1.1 µM and inactive = higher.

INSERT INTO assay_data (compound, measurement) VALUES
  ('CCOC(=O)c1[nH]c2cccc3c2c1CC(Br)C3=O (stereo not given)', '16.7 µM (inactive)');

Now turn to the next compound.
Fill in: GI50 of NNC(=O)c1cc(Cl)ccc1NC(=O)C12CC3CC(CC(C3)C1)C2 is ___
20.5 µM (inactive)

* * *

System: HCT-15
Listed below: GI50 values for each entry.
Report as a plain number; the unit µM is understood.

In the examples that follow, each entry is paired with its recorded GI50.
INSERT INTO measurements (compound, recorded_endpoint, endpoint_unit, measurement) VALUES
  ('O=C(/C=C/c1ccc(Cl)c(Cl)c1)c1ccccc1Cl', 'GI50', 'µM', 5.45),
  ('COc1cc2c(cc1OC)CN1CCc3ccccc3CC1C2 (stereo unspecified)', 'GI50', 'µM', 39.4);

Next, consider the following compound.
Sample N#CC1=C(O)NC(O)=C(C#N)C1c1ccc(C2C(C#N)=C(O)NC(O)=C2C#N)cc1 — what was its GI50?
50.8

* * *

Tested on: UACC-257
assay_comment: NCI tumour cell line growth inhibition, 48 h
Calls of active or inactive are those of the source. No stated cut-off is given here; in the data, active = GI50 up to about 1.1 µM and inactive = higher.
recorded_endpoint: GI50

For orientation, consider the following solved cases.
INSERT INTO results (molecule, test_target, recorded_endpoint, measurement) VALUES
  ('COP(C)(=O)C1=CCN(C(=O)OCC[Si](C)(C)C)CC1 (centres undefined)', 'UACC-257', 'GI50', '> 100 µM (inactive)'),
  ('O=C(O)Cc1cc(Cl)ccc1O', 'UACC-257', 'GI50', '> 100 µM (inactive)'),
  ('Fc1cccc(F)c1C1SCc2nc3cc4ccccc4cc3n21 (centres undefined)', 'UACC-257', 'GI50', '31.6 µM (inactive)'),
  ('O=C1NC(N2CCOCC2)=N/C1=C\c1ccco1', 'UACC-257', 'GI50', '> 100 µM (inactive)'),
  ('C#Cc1cccc(NC(=O)/C=C\C(=O)O)c1', 'UACC-257', 'GI50', '> 100 µM (inactive)'),
  ('NS(=O)(=O)c1ccc(/N=N/c2nc3[nH]cnc(=S)c3[nH]2)cc1', 'UACC-257', 'GI50', '2.94 µM (inactive)'),
  ('O=C(CC(C(=O)c1cccs1)c1ccsc1)c1ccc(Cl)cc1 (centres undefined)', 'UACC-257', 'GI50', '> 100 µM (inactive)'),
  ('CN(C)C(=S)N1C(=S)N(c2ccccc2)C(=N/c2ccccc2)/C1=N\c1ccccc1', 'UACC-257', 'GI50', '> 100 µM (inactive)');

For C[C@]12CC[C@H]3[C@@H](CCC4=CC(=O)CC[C@@]43C)[C@@H]1CC[C@@H]2C(=O)Nc1ccc([N+](=O)[O-])c(C(F)(F)F)c1 , what is its reported GI50?
> 10 µM (inactive)

Given the entry C=C1N(C=O)C(C)(C)N(O)C1(C)C , report its measured GI50.
> 100 µM (inactive)

Reported GI50 for CC/C=N\N1C(N)=C(C#N)C(C#N)(C#N)C1CC (centres undefined) : what is it?
> 100 µM (inactive)

I have this molecule here, COC(=O)C(CNC(=O)/C=C/c1ccc(OC(C)=O)c(OC(C)=O)c1)NC(=O)/C=C/c1ccc(OC(C)=O)c(OC(C)=O)c1 (centres undefined) , and I need its recorded GI50.
> 100 µM (inactive)

Recorded GI50 of C=C1C(=O)O[C@H]2C[C@@H]1C(=O)CC(C)CCCC(C)=CCC[C@@]2(C)O (some centres undefined) , please.
> 25 µM (inactive)

Consider the molecule O=C1O[C@H](COC(=O)c2ccccc2)[C@@H](OC(=O)c2ccccc2)C=C1OC(=O)c1ccccc1 and give its measured GI50.
25.7 µM (inactive)

Name the recorded GI50 for Cc1cn(C2CC(N=[N+]=[N-])C(C(=O)O)O2)c(=O)[nH]c1=O (centres undefined) .
> 100 µM (inactive)

Returns the measured GI50 for the input molecule. Input: CNC(=O)CNC(=O)CCC(=O)N(C)C
> 100 µM (inactive)

What does the record list as GI50 for CON(C)C(=O)C(C)NC(=O)OC(C)(C)C (centres undefined) ?
> 100 µM (inactive)

Give the measured GI50 of O=C(/C=C/c1ccc(Cl)c(Cl)c1)c1ccccc1Cl .
14.3 µM (inactive)

What measured GI50 goes with O=C(O)C12C3CCC(CC3)C1(C(=O)O)C1CCC2C1 (centres undefined) ?
> 100 µM (inactive)

Query: GI50; subject: CC(CN(C)C)C(=O)/C=C/c1ccc(Cl)c(Cl)c1 (centres undefined)
2.38 µM (inactive)

Query (molecule): COc1ccc(NC(=S)c2ccc(CN3CCCCC3)s2)cc1 ; field requested: GI50
16.6 µM (inactive)

GI50 lookup needed for COc1cc(C2c3cc4c(cc3OC(NN)C2C)OCO4)cc(OC)c1O (centres undefined) , thanks.
18.5 µM (inactive)

Fill blank: measured GI50 of the molecule N#Cc1nc(-c2ccccn2)c(-c2ccccn2)nc1C#N is ____.
3.65 µM (inactive)

Would you mind telling me what GI50 value was observed for COc1c(C)c2c(c(O)c1C/C=C(\C)CCC(=O)O)C(=O)OC2 ?
4.51 µM (inactive)
